system name: Epidermal Growth Factor Receptor (EGFR), extracellular domain (EGFR-ECD) (Homo sapiens, UniProt P00533)
Construct: full-length EGFR in DiscoverX PathHunter enzyme-complementation cells, EGF-stimulated
Sequence (P00533 25-1210): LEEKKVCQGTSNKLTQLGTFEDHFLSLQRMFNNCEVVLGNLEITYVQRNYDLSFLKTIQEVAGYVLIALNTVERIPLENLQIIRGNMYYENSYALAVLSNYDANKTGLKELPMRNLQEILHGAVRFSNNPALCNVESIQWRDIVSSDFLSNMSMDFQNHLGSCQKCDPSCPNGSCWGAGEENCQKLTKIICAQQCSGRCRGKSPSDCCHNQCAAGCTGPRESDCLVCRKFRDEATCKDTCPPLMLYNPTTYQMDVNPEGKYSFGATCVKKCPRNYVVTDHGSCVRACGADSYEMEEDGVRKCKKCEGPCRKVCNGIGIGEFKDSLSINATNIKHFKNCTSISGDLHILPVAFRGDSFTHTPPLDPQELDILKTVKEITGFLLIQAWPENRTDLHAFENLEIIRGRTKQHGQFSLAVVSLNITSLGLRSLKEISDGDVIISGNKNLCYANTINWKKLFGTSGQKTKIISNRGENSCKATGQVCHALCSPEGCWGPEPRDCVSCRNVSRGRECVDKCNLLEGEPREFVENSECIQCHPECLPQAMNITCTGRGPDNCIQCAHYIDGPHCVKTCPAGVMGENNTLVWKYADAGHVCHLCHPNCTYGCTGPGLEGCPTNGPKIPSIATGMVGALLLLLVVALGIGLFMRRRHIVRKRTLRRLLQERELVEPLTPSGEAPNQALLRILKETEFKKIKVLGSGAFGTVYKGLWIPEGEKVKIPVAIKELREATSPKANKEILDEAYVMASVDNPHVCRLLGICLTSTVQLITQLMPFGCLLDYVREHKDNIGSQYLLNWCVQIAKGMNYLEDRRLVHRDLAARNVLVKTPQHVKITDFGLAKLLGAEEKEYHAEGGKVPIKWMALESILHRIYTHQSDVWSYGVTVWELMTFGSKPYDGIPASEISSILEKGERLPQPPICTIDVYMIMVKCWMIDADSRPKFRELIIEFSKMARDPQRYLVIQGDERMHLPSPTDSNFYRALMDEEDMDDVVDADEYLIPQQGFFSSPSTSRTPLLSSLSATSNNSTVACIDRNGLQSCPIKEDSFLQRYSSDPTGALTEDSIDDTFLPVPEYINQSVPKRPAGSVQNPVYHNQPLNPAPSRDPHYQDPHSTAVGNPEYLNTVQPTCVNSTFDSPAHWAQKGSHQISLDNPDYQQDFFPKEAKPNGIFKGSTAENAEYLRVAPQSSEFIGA
assay overview: cell-based
Design: DiscoverX PathHunter EGFR dimerization/activation assay, chemiluminescence
measure name: inhibition at 50 µM (%)

1. CC(=O)Nc1ccc(/C=C2/N=C(c3cccc(C(=O)O)c3)OC2=O)cc1; 0

a = CC(NC(=O)C(NC(=O)OCc1ccccc1)C(C)C)C(=O)OCCCCCNc1ccc(NCCCCCO)c2c1C(=O)c1ccccc1C2=O (stereo not shown)
b = O=C(NC(=S)Nc1cccc(Oc2ncc(Cl)cn2)c1)c1ccccc1
c = ClCc1c2ccccc2c(CCl)c2ccccc12
Please put the entries in order of rising inhibition at 50 µM. Give me the labels in the order the question wants.
a, b, c
(a: 0%, b: 21%, c: 50%)

====

system name: Epidermal Growth Factor Receptor (EGFR), extracellular domain (EGFR-ECD) (Homo sapiens)
Construct: full-length EGFR in DiscoverX PathHunter enzyme-complementation cells, EGF-stimulated
assay overview: cell-based
Set-up: DiscoverX PathHunter EGFR dimerization/activation assay, chemiluminescence
Method: The inhibition of the EGFR dimerization assay was conducted using the PathHunter kit following the producer instructions and with cetuximab as a positive control. […] Our interest in kinase inhibitors and the readily availability of such kit prompted us to start a campaign for the discovery of small molecules targeting the extracellular domain of EGFR.
measure name: inhibition at 50 µM (%)

1) Cc1ccc([N+](=O)[O-])cc1Nc1nccc(-c2cccnc2)n1; 0

A = CCc1cnc(Oc2cccc(NC(=O)NC(=O)c3ccccc3[N+](=O)[O-])c2)nc1
B = CC(NC(=O)C(NC(=O)OCc1ccccc1)C(C)C)C(=O)OCCCCCNc1ccc(NCCCCCOC(=O)C(C)NC(=O)C(NC(=O)OCc2ccccc2)C(C)C)c2c1C(=O)c1ccccc1C2=O (stereo not shown)
C = CC(=O)Nc1ccc(NC(=O)Cc2c(C)c3cc4c5c(oc4c(C)c3oc2=O)CCCC5)cc1
Provide the items ranked by increasing inhibition at 50 µM. Response format: the labels, sorted as the prompt asks.
A, B, C
(A: 0%, B: 20%, C: 49%)
